Reported values of TGI for individual entries
Tested on: RPMI-8226 leukemia
Experiment: NCI tumour cell line growth inhibition, 48 h
I only need the number, in µM, no unit after it.

Below, 5 compounds whose answers are already recorded.
                                   compound  parameter_measured  unit_info  numeric_result
0  CC(C)(C)NCC(COc1ccc([N+](=O)[O-])cc1)OP(c1ccccc1)c1ccccc1 (stereo not given)                 TGI         µM            35.3
1      C/C(=N\Nc1nc2ccccc2s1)c1ccc2ccccc2n1                 TGI         µM            45.3
2  CC(C)(C)c1ccc(OC2CCO2)cc1 (stereo not given)                 TGI         µM              47
3  Cc1c(C(=O)/C=C/c2ccccc2[N+](=O)[O-])[n+](=O)c2ccccc2n1[O-]                 TGI         µM            14.7
4  CC(C)N1CN(c2ccccc2)C2(CCN(CCCC(=O)c3ccc(F)cc3)CC2)C1=O                 TGI         µM            31.1

// recorded TGI for Cc1c2ccncc2c(C)c2c1[nH]c1ccc(O)c(OCC(F)(F)F)c12 : 5.95

Please fill in: TGI reported for CCN(CCCl)c1cc(CN(C)C)cc(NC(=O)c2ccc(C(=O)Nc3cccc(CN(C)C)c3)cc2)c1 = 8.73

Record COc1cc(C2c3cc4c(cc3[C@@H](Nc3ccc5c(c3)OCO5)C3COC(=O)[C@H]23)OCO4)cc(OC)c1O (stereo not given in full) . Reported TGI: 8.59

Notebook: CCCCCCCCCCCCCC[n+]1cccc(C(N)=O)c1 , TGI read as 4.44

The value of TGI measured for the compound CCNCCNc1cc(-c2ccc(C#N)cc2)c(C#N)c2nc3ccccc3n12 turned out to be 19.5

====

Test system: MDA-MB-231 breast
Test: NCI tumour cell line growth inhibition, 48 h
TGI: recorded values
# number only, unit µM dropped from output

Below are worked cases with known answers.
MOL_SMILES	PARAMETER_MEASURED	NUMERIC_RESULT
Clc1nncc2sc(-c3ccccc3)nc12	TGI	56.1
Fc1ccc2nc(-c3cc(-c4ccc5c(c4)OCO5)n[nH]3)[nH]c2c1	TGI	6.59
O=C1/C(=C/c2ccc([N+](=O)[O-])cc2)COc2ccc(O)cc21	TGI	36.9

Next molecule, please.
TGI reported for this molecule CC1(C)CC(C#Cc2ccccc2)CC(C)(C)N1O : 29.8

====

Tested on: KM20L2 colon
Experiment: NCI tumour cell line growth inhibition, 48 h
Here the recorded TGI is given for each entry.

Look over these answered cases.
MOLECULE	TGI
O=C(CC1(O)C(=O)Nc2c(Cl)ccc(Cl)c21)c1ccc(Cl)cc1Cl (configuration not stated)	> 100 µM
O=C(O)/C=C\C(=O)Nc1ccc(S(=O)(=O)c2ccc(NC(=O)/C=C\C(=O)O)cc2)cc1	> 100 µM
C=C1C2Oc3ccccc3C1N(c1ccccc1)O2 (configuration not stated)	> 100 µM
CC(C)(C)OC(=O)NC1CCCC1=O (configuration not stated)	> 100 µM
COc1cc(CNc2nc3ccc(C(F)(F)F)cc3nc2-c2ccccc2)cc(OC)c1OC	> 100 µM
N#C/C(=C1\SC(N=Nc2ccc(Cl)cc2)C(=O)N1c1ccccc1)c1nc2ccccc2[nH]1 (configuration not stated)	> 100 µM
COc1ccc2c(NCCCCCCNc3c4ccccc4nc4cc(OC)ccc34)c3ccccc3nc2c1	1.17 µM
CC(=O)[CH-]C(=O)c1ccccc1.CC(=O)[CH-]C(=O)c1ccccc1.CC1(C)OCC(C2OC3OC(C)(C)OC3C2[O-])O1.CC[O-].[Ti+4] (configuration not stated)	53.5 µM

# next molecule below
The molecule listed as COc1ccc(C2Oc3c(c(O)cc4c3[C@H](c3ccc(O)cc3O)[C@H](O)C(c3ccc(O)c(O)c3)O4)C[C@@H]2O)cc1O (some centres not stated) shows TGI equal to > 100 µM
